tested on: HEK-293T; assay: Incucyte cell viability with HEK293T; type: toxicity, cell-based; details: human, 6 h, 10 µM, compound concentration 10 uM, replicate number 2; note: unitless GR value; below 1 slowed growth and below 0 cell loss
The molecules listed here are annotated with their Growth Rate.

Value of measured Growth Rate for the entry `C=C[C@H]1C[N@@]2CC[C@H]1C[C@@H]2[C@@H](O)c1ccnc2ccc(OC)cc12` : 0.85

Others:
Record `N=C(N)NCCC[C@H](NC(=O)CC1(CC(=O)N2CCN(C(c3ccccc3)c3ccccc3)CC2)CCCC1)C(=O)NCc1ccccc1.O=C(O)C(F)(F)F.O=C(O)C(F)(F)F` , field Growth Rate: 0.95

* * *

system: HEK-293T; test: Incucyte cell viability with HEK293T; type: toxicity, cell-based; details: human, 6 h, 10 µM, compound concentration 10 uM, replicate number 2; note: unitless GR value; below 1 slowed growth and below 0 cell loss
Classes based on Growth Rate: LOW (below -0.5), MEDIUM (-0.5 to below 0.6), HIGH (0.6 or more)

**Query** Category lookup for the compound `O=C(Nc1cccc(C(F)(F)F)c1)c1cc(Cl)ccc1O`
**Result** LOW

More entries:
**Query** Class? Entry: `COc1cc(N2CCN(C)CC2)ccc1Nc1ncc2c(n1)N(C)c1ccccc1C(=O)N2CC(F)(F)F`
**Result** MEDIUM

**Query** # bin label for `CCCC(=O)C1CCN(c2ncnc3c2CN(C(=O)c2ccc(-c4ccccc4)cc2)CC3)CC1`
**Result** MEDIUM

**Query** GET /class?item= `COCCNc1cc(NC(=O)N2CCCc3cc(CN4CCN(C)CC4=O)c(C=O)nc32)ncc1C#N`
**Result** HIGH

**Query** Please classify: `CCN1CCN(Cc2ccc(Nc3ncc(F)c(-c4cc(F)c5nc(C)n(C(C)C)c5c4)n3)nc2)CC1.CS(=O)(=O)O`
**Result** HIGH

**Query** Bin this entry: O=C1Nc2ccc(C(=O)c3ccco3)cc2C1=Cc1cc(Cl)c(O)c(Cl)c1 [GW406108X]
**Result** MEDIUM

* * *

tested on: U2OS; assay: Incucyte cell viability with U2OS; format: toxicity, cell-based; details: human, 18 h, 10 µM, compound concentration 10 uM, replicate number 1; note: unitless GR value; below 1 slowed growth and below 0 cell loss
Response field label: string, one of T (Growth Rate strictly below 0.9) or F.

Use the examples below as a reference point.
**Query** Please let me know if `NC(=O)c1ccc(-c2nc(-c3ccc4c(c3)OCO4)c(-c3ccccn3)[nH]2)cc1.O` shows Growth Rate below 0.9.
**Result** F

**Query** Check if Growth Rate falls below 0.9 for C[C@@H]1CC[C@@]2(OC1)O[C@H]1[C@@H](O)[C@H]3[C@@H]4CC[C@H]5C[C@@H](O[C@@H]6O[C@H](CO)[C@H](O[C@@H]7O[C@H](CO)C(O)[C@H](O[C@@H]8OC[C@@H](O)[C@H](O)[C@H]8O)[C@H]7O[C@@H]7O[C@H](CO)[C@H](O)[C@H](O[C@@H]8O[C@H](CO)[C@@H](O)[C@H](O)[C@H]8O)[C@H]7O)[C@H](O)[C@H]6O)[C@H](O)C[C@]5(C)[C@H]4CC[C@]3(C)[C@H]1[C@@H]2C (some centres not stated) .
**Result** F

**Query** Given the entry `CN(C)CCCn1cc(C2=C(c3c[nH]c4ccccc34)C(=O)NC2=O)c2ccccc21` , would its reported Growth Rate be below 0.9?
**Result** F

**Query** Does `Cn1c(SCc2ccc(C(C)(C)C)cc2)nc(N)cc1=O` have Growth Rate strictly under 0.9?
**Result** T

**Query** State whether 0.9 exceeds Growth Rate recorded for `Cc1ccccc1Oc1cc(-n2c(=O)cc(C(F)(F)F)[nH]c2=O)c2ccccc2c1Cl` .
**Result** T

**Query** A record lists `COc1cc(N2CCN(C)CC2)ccc1Nc1ncc2c(n1)N(C)c1ccccc1C(=O)N2CC(F)(F)F` . Is its Growth Rate below 0.9?
**Result** F

# input for lookup
**Query** Regarding `Cc1cc(-c2cc3ncccc3c(OC[C@H]3CCCNC3)n2)ccc1N(C)C.O=C(O)C(F)(F)F` , kindly confirm whether its Growth Rate is beneath 0.9.
**Result** T
